experimental-protocol: The drug is tested on Providencia rettgeri strain: DSM1131 for biotransformation. The drug concentrations were measured before and after a 12-h incubation by liquid-chromatography-coupled mass spectrometry (LC–MS)
Format: ADME
Set-up: dose 2 uM, timepoint 0 vs 12 hours
condition-context: 2 µM
recorded-metric: Bacterial Biotransformation

Problem: Please report the recorded Bacterial Biotransformation for N#Cc1ccc2c(c1)N(CCCN1CCC(O)CC1)c1ccccc1S2 [PERICIAZINE] .
Result: Compound NOT metabolized

Problem: Please report the recorded Bacterial Biotransformation for CC(C)c1nc(CN(C)C(=O)N[C@H](C(=O)N[C@@H](Cc2ccccc2)C[C@H](O)[C@H](Cc2ccccc2)NC(=O)OCc2cncs2)C(C)C)cs1 [RITONAVIR] .
Result: Compound NOT metabolized

Problem: Please report the recorded Bacterial Biotransformation for O=C([O-])C[C@H](O)C[C@H](O)/C=C/c1c(C2CC2)nc2ccccc2c1-c1ccc(F)cc1.O=C([O-])C[C@H](O)C[C@H](O)/C=C/c1c(C2CC2)nc2ccccc2c1-c1ccc(F)cc1.[Ca+2] [PITAVASTATIN CALCIUM] .
Result: Compound NOT metabolized

Problem: Please report the recorded Bacterial Biotransformation for C=CCc1ccccc1OCC(O)CNC(C)C (configuration not stated) [ALPRENOLOL] .
Result: Compound NOT metabolized

Problem: Please report the recorded Bacterial Biotransformation for C=CCN1CC[C@]23c4c5ccc(O)c4O[C@H]2C(=O)CC[C@@]3(O)[C@H]1C5 [NALOXONE] .
Result: Compound NOT metabolized

Problem: Please report the recorded Bacterial Biotransformation for CCC(COC(=O)c1cc(OC)c(OC)c(OC)c1)(c1ccccc1)N(C)C.O=C(O)/C=C\C(=O)O (configuration not stated) .
Result: Compound NOT metabolized

Pending compound:
Problem: Please report the recorded Bacterial Biotransformation for Cc1ccccc1C(OCCN(C)C)c1ccccc1.O=C(O)CC(O)(CC(=O)O)C(=O)O (configuration not stated) [ORPHENADRINE CITRATE] .
Result: Compound NOT metabolized

----------
condition-context: victivallis vadensis, 12 h, 2 µM
Description: The drug is tested on Victivallis vadensis strain: ATCC BAA-548 for biotransformation. The drug concentrations were measured before and after a 12-h incubation by liquid-chromatography-coupled mass spectrometry (LC–MS)
recorded-metric: Bacterial Biotransformation

Look over these answered cases.
Problem: Please report the recorded Bacterial Biotransformation for CCN(CC)CCOC(=O)C1(C2CCCCC2)CCCCC1 [DICYCLOMINE] .
Result: Compound NOT metabolized

Problem: Please report the recorded Bacterial Biotransformation for CCN(C)C(=O)Oc1cccc([C@H](C)N(C)C)c1.O=C(O)C(O)C(O)C(=O)O [RIVASTIGMINE TARTRATE] .
Result: Compound NOT metabolized

Problem: Please report the recorded Bacterial Biotransformation for CC(C)c1nc(CN(C)C(=O)N[C@H](C(=O)N[C@@H](Cc2ccccc2)C[C@H](O)[C@H](Cc2ccccc2)NC(=O)OCc2cncs2)C(C)C)cs1 [RITONAVIR] .
Result: Compound NOT metabolized

Problem: Please report the recorded Bacterial Biotransformation for CNNCc1ccc(C(=O)NC(C)C)cc1 [PROCARBAZINE] .
Result: Compound NOT metabolized

Problem: Please report the recorded Bacterial Biotransformation for CCN(CC)CCOC(=O)C(Cc1cccc2ccccc12)CC1CCCO1.O=C(O)C(=O)O (configuration not stated) [NAFRONYL OXALATE] .
Result: Compound NOT metabolized

---
Problem: Please report the recorded Bacterial Biotransformation for CC(=O)SCC(Cc1ccccc1)C(=O)NCC(=O)OCc1ccccc1 (configuration not stated) [RACECADOTRIL] .
Result: Compound metabolized

Problem: Please report the recorded Bacterial Biotransformation for COc1ccc2c(c1OC)C(=O)O[C@@H]2[C@H]1c2c(cc3c(c2OC)OCO3)CCN1C [NOSCAPINE] .
Result: Compound NOT metabolized

Problem: Please report the recorded Bacterial Biotransformation for CC(=O)O[C@]1(C(C)=O)CC[C@H]2[C@@H]3C=C(Cl)C4=CC(=O)[C@@H]5C[C@@H]5[C@]4(C)[C@H]3CC[C@@]21C [CYPROTERONE ACETATE] .
Result: Compound NOT metabolized

Problem: Please report the recorded Bacterial Biotransformation for O=C(O)c1cc(/N=N/c2ccc(S(=O)(=O)Nc3ccccn3)cc2)ccc1O [SULFASALAZINE] .
Result: Compound metabolized

Problem: Please report the recorded Bacterial Biotransformation for CC(=O)CC(c1ccccc1)c1c(O)c2ccccc2oc1=O (configuration not stated) [WARFARIN] .
Result: Compound NOT metabolized

Problem: Please report the recorded Bacterial Biotransformation for CN1[C@@H]2CC[C@H]1C[C@@H](OC(=O)c1c[nH]c3ccccc13)C2 [TROPISETRON] .
Result: Compound NOT metabolized

Problem: Please report the recorded Bacterial Biotransformation for COc1ccnc(C[S+]([O-])c2nc3ccc(OC(F)F)cc3[nH]2)c1OC (configuration not stated) [PANTOPRAZOLE] .
Result: Compound metabolized

Problem: Please report the recorded Bacterial Biotransformation for CC#C[C@]1(O)CC[C@H]2[C@@H]3CCC4=CC(=O)CCC4=C3[C@@H](c3ccc(N(C)C)cc3)C[C@@]21C [MIFEPRISTONE] .
Result: Compound NOT metabolized

Problem: Please report the recorded Bacterial Biotransformation for N=C(N)NC(=O)Cc1c(Cl)cccc1Cl [GUANFACINE] .
Result: Compound NOT metabolized

Problem: Please report the recorded Bacterial Biotransformation for O=C(NC(Cc1cc(=O)[nH]c2ccccc12)C(=O)O)c1ccc(Cl)cc1 (configuration not stated) [REBAMIPIDE] .
Result: Compound NOT metabolized

Problem: Please report the recorded Bacterial Biotransformation for Cc1nc2n(c(=O)c1CCN1CCC(c3noc4cc(F)ccc34)CC1)CCCC2O (configuration not stated) [PALIPERIDONE] .
Result: Compound NOT metabolized

Problem: Please report the recorded Bacterial Biotransformation for C=CCN1CC[C@]23c4c5ccc(O)c4O[C@H]2C(=O)CC[C@@]3(O)[C@H]1C5 [NALOXONE] .
Result: Compound NOT metabolized
